Measured values drawn from paper PMC10141580 for this set.

System: panel of 140 standard cancer cell lines
Assay: ProliFiler-140 cancer cell line screen (CellTiterGlo, 72 h)
Assay type: cell-based
Conditions: read-out: IC50 [M] (ProliFiler-140); NCI-H1573 (Lung)
Assay Readout: IC50
Express the reported value numerically, then name its unit.

**Q:** For panel of 140 standard cancer cell lines, provide IC50 of COc1cc2cc(C(=O)N3C[C@@H](CCl)c4c3cc(OC(=O)N3CCN(C(=O)CCC(=O)N5CCN(C)CC5)[C@H]5CSSC[C@H]53)c3ccccc43)[nH]c2c(OC)c1OC [P-SS66C-CBI-TMI] please.
**A:** 8.97e-08 M

---

System: panel of 140 standard cancer cell lines
Assay: ProliFiler-140 cancer cell line screen (CellTiterGlo, 72 h)
Format: cell-based
Conditions: HCT116; read-out: IC50
Assay Readout: IC50 (nM)
Number in nM, nothing else.

**Q:** Hi! What's the reported IC50 for COc1cc2cc(C(=O)N3C[C@@H](CCl)c4c3cc(OC(=O)N(CCC(=O)N3CCN(C)CC3)C3CCCCC3)c3ccccc43)[nH]c2c(OC)c1OC [P-CC60-CBI-TMI] on panel of 140 standard cancer cell lines?
**A:** 440

---

Tested on: panel of 140 standard cancer cell lines
Test: ProliFiler-140 cancer cell line screen (CellTiterGlo, 72 h)
Format: cell-based
Settings: Homo sapiens, A2058, A2058 (Skin); read-out: IC50 [M] (ProliFiler-140)
Assay Readout: IC50 (M)
Respond with the bare value in M.

**Q:** Fill in: IC50 of COc1cccc2c1C(=O)c1c(O)c3c(c(O)c1C2=O)C[C@@](O)(C(=O)CO)C[C@@H]3O[C@H]1C[C@H](N)[C@H](O)[C@H](C)O1 [doxorubicin, reference compound] is ___
**A:** 3.7e-08

---

Tested on: panel of 140 standard cancer cell lines
Test: ProliFiler-140 cancer cell line screen (CellTiterGlo, 72 h)
Assay type: cell-based
Settings: BT-20 (Breast); listed as Dox; read-out: IC50 [M] (ProliFiler-140)
Assay Readout: IC50 (M)
State just the number; it will be interpreted in M.

**Q:** Query: IC50; subject: COc1cccc2c1C(=O)c1c(O)c3c(c(O)c1C2=O)C[C@@](O)(C(=O)CO)C[C@@H]3O[C@H]1C[C@H](N)[C@H](O)[C@H](C)O1 [doxorubicin, reference compound]
**A:** 2.35e-07

---

Tested on: NCI-60 standardized human tumor cell line panel
Assay: cells
Assay type: cell-based
Settings: SF-539; AZI sheet; read-out: GI50
# GI50 values compiled below
Kindly provide the numeric value in nM only, without the unit symbol.

**Q:** Form: Entry = CN(CCSSCCN1CCOCC1)C(=O)Oc1cc2c(c3ccccc13)[C@H](CCl)CN2C(=O)c1cc2cc(OCCCN3CCC3)ccc2[nH]1 [SS00M-CBI-AZI] | System = NCI-60 standardized human tumor cell line panel | GI50 = ____
**A:** 51

**Q:** So what GI50 did CN1CCN(C(=O)CCN(C(=O)Oc2cc3c(c4ccccc24)[C@H](CCl)CN3C(=O)c2cc3cc(OCCCN4CCC4)ccc3[nH]2)[C@H]2CCSSC2)CC1 get with NCI-60 standardized human tumor cell line panel?
**A:** 330

**Q:** Give NCI-60 standardized human tumor cell line panel GI50 for O=C(c1cc2cc(OCCCN3CCC3)ccc2[nH]1)N1C[C@@H](CCl)c2c1cc(OCc1ccccc1)c1ccccc21
**A:** 290

**Q:** API: value(readout=GI50, system=NCI-60 standardized human tumor cell line panel) for record CN1CCN(C(=O)Oc2cc3c(c4ccccc24)C(CCl)CN3C(=O)c2cc3cc(OCCCN4CCC4)ccc3[nH]2)C2CSSCC21 (mixture of isomers) [Me-SS66C-CBI-AZI]
**A:** 22

***
**Q:** Requested read-out GI50, target or system NCI-60 standardized human tumor cell line panel, entry CN1CCN(C(=O)Oc2cc3c(c4ccccc24)C(CCl)CN3C(=O)c2cc3cc(OCCCN4CCC4)ccc3[nH]2)C2CSSCC21 (mixture of isomers) [Me-SS66T-CBI-AZI]
**A:** 5.2
